Just for reference, ChEMBL document CHEMBL4043144 is where these values come from.

System: Human rhinovirus sp.
assay_protocol: Inhibition of recombinant N-terminal His-tagged HRV 3C protease expressed in Escherichia coli at 100 uM preincubated for 15 mins followed by LEVLFQGPSK substrate addition after 45 mins by reverse-phase HPLC analysis relative to control
measurement_name: inhibition (%)
State the answer as a number, implicitly in %.

smiles: COc1cccc(NCCNC(=O)[C@@H]2OC(C)(C)O[C@H]2C(=O)Nc2nc3ccccc3s2)c1
tgt: Human rhinovirus sp.
inhibition (%): 99.9
--
smiles: CC1(C)O[C@@H](C(=O)Nc2nc3ccccc3s2)[C@H](C(=O)N2CCN(c3ccccn3)CC2)O1
tgt: Human rhinovirus sp.
inhibition (%): 97.8
--
smiles: COc1cccc(NCCNC(=O)[C@@H]2OC(C)(C)O[C@H]2C(=O)Nc2ccc3ccccc3c2)c1
tgt: Human rhinovirus sp.
inhibition (%): 80.6
--
smiles: CC1(C)O[C@@H](C(=O)Nc2nc3ccccc3s2)[C@H](C(=O)N2CCN(c3ccccc3C#N)CC2)O1
tgt: Human rhinovirus sp.
inhibition (%): 100

In the following, a different molecule is considered.
Item CC1(C)O[C@H](C(=O)Nc2nc3ccccc3s2)[C@@H](C(=O)N2CCN(c3ccccc3)CC2)O1 with Human rhinovirus sp. - inhibition?
67.8
